# System: 624824-186-R-J3-PDC multicell spheroids, viability;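 also: spheroids exposed to agents for seven days before luminescence read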
# assayOverview: Anticancer human tumor 624824-186-R-J3-PDC patient-derived colon adenocarcinoma cell line growth inhibition [PI3K]
# experimentalContext: curve of first compound; second compound 0.1 µM
Listing of recorded IC50 by entry.
quantityName: IC50 (µM)

INSERT INTO assay_data (compound, testedtarget, quantityname, outputunit, inequalityoperator, numericreadout) VALUES
  ('CC1(C)CCC(CN2CCN(c3ccc(C(=O)NS(=O)(=O)c4ccc(NCC5CCOCC5)c([N+](=O)[O-])c4)c(Oc4cnc5[nH]ccc5c4)c3)CC2)=C(c2ccc(Cl)cc2)C1 + CC(Nc1ncnc2nc[nH]c12)c1cc2cccc(Cl)c2c(=O)n1-c1ccccc1', '624824-186-R-J3-PDC multicell spheroids, viability', 'IC50', 'µM', '=', 7.33),
  ('CCCS(=O)(=O)Nc1ccc(F)c(C(=O)c2c[nH]c3ncc(-c4ccc(Cl)cc4)cc23)c1F + CC(Nc1ncnc2nc[nH]c12)c1cc2cccc(Cl)c2c(=O)n1-c1ccccc1', '624824-186-R-J3-PDC multicell spheroids, viability', 'IC50', 'µM', '=', 4.92),
  ('C#Cc1c(F)ccc2cc(O)cc(-c3ncc4c(N5CC6CCC(C5)N6)nc(OCC56CCCN5CC(F)C6)nc4c3F)c12 (stereo not drawn) + Cc1nc(NC(=O)N2CCCC2C(N)=O)sc1-c1ccnc(C(C)(C)C(F)(F)F)c1', '624824-186-R-J3-PDC multicell spheroids, viability', 'IC50', 'µM', '>', 10);
